# tgt: SH3 domain of Abl (AblSH3) (Homo sapiens, UniProt P00519)
# Sequence (P00519 61-121 limits assumed): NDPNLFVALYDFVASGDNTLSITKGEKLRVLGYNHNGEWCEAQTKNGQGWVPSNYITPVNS
# run_description: Fluorescence titration binding of synthetic MED25 peptides to Abl SH3
assay_metric: Kd (nM)
Note: unit nM is implicit; provide only the numeric part.

Query: Entry Ac-QLPPGPPGVPKPPPAS-NH2 [mutant, Ac-QLPPGPPGVPKPPPAS-CONH2] needs its Kd filled in; supply it.
Response: 2910

* * *

# tgt: SH3 domain of the Src-family kinase Lck (LckSH3) (Homo sapiens, UniProt P06239)
# Sequence (P06239 61-121 limits assumed): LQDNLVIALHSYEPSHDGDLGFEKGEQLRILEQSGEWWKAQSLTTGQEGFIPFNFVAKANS
# run_description: Fluorescence titration binding of synthetic MED25 peptides to Lck SH3
assay_metric: pKd
Please treat pKd as minus the base-10 logarithm of the molar concentration.

Query: Entry Ac-QLPPGPPGVPKPPPAS-NH2 [mutant, Ac-QLPPGPPGVPKPPPAS-CONH2] needs its pKd filled in; supply it.
Response: 5.27
